Measured values drawn from ChEMBL document CHEMBL1201862 for this set.

# systemName: SWI/SNF-related matrix-associated actin-dependent regulator of chromatin subfamily A member 2 (Homo sapiens, UniProt P51531)
# Sequence (P51531 whole entry): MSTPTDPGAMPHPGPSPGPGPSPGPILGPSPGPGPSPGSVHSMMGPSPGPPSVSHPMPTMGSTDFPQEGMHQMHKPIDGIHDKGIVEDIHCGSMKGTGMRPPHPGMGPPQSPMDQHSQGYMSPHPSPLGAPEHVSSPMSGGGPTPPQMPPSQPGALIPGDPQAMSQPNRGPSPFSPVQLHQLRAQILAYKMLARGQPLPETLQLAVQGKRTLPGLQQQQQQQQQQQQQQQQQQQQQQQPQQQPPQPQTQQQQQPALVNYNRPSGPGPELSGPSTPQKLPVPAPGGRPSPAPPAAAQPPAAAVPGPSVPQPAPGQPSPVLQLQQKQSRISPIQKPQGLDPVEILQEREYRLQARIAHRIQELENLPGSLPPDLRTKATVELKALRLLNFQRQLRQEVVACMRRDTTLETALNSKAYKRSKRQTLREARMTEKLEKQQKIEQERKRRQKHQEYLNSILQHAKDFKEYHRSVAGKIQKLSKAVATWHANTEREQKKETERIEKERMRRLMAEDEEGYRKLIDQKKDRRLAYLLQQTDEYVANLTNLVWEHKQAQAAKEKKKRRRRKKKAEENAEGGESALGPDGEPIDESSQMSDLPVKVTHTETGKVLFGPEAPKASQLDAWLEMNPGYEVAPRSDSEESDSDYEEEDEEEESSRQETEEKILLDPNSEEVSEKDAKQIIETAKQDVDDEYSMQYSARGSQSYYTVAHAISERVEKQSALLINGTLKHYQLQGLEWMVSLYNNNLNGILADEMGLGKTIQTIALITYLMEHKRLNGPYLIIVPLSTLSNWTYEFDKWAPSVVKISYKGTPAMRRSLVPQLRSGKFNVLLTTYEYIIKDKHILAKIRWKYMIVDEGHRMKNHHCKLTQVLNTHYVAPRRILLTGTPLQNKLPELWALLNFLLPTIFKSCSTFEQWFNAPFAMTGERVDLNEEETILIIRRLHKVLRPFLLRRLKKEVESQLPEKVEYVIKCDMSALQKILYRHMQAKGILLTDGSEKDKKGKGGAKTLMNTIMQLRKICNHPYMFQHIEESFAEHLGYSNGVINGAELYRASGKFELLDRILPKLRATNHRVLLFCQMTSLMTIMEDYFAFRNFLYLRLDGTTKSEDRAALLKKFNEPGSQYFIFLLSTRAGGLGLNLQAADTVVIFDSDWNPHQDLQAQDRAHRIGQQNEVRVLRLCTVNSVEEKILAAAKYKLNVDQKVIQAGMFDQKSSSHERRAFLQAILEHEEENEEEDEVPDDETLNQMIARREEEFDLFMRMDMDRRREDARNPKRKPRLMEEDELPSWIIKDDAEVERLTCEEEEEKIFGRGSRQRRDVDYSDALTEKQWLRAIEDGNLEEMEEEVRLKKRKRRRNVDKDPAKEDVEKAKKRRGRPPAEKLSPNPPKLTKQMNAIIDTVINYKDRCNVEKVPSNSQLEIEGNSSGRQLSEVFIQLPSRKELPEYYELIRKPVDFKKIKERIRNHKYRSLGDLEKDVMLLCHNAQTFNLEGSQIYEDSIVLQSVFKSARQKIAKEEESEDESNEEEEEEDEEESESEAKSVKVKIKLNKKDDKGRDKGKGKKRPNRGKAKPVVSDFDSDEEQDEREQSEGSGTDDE
# testProtocol: Luminescence-based cell-based high throughput dose response assay to identify activators of the function of SWI/SNF related, matrix associated, actin dependent regulator of chromatin, subfamily a, member 2 (SMARCA2, BRM).
# Format: functional
Where a name gives a salt, the structure may show the parent alone. Activity calls are given as the source filed them.
Use one of these outcomes when replying: active, inactive

Example results:
INSERT INTO assay_data (compound, category) VALUES
  ('Cc1n[nH]c(SCC(=O)N2CCc3ccccc32)n1', 'inactive'),
  ('Nc1c2ccccc2nc2ccccc12 [AMINACRINE HYDROCHLORIDE]', 'active'),
  ('CCN(CC)CCn1c2ccccc2c2cnc(N)c(C#N)c21', 'active');

We now examine a further compound.
In: Any idea what this test logged for `Clc1ccc(CO/N=C2\CCCc3nonc32)cc1` ?
Out: inactive

* * *

# systemName: Corticotropin-releasing factor receptor 2/Corticotropin-releasing factor-binding protein (Homo sapiens, UniProt P24387+Q13324)
# testProtocol: activators of CRF receptor 2 with binding protein – uHTS hits, confirmation (AID 602473)
# Format: functional
# testConditions: read-out: EC50_Mean
Activity calls are given as the source filed them.
Use one of these outcomes when replying: active, inactive

Example results:
INSERT INTO measurements (molecule, category) VALUES
  ('CCCn1c(=O)c(C(=O)NNC(=O)c2ccc(Cl)cc2Cl)c(O)c2ccccc21', 'active'),
  ('O=C(COC(=O)C1CCN(S(=O)(=O)c2ccccc2)CC1)NC(=O)c1ccc(OC(F)F)cc1', 'inactive');

In: Any idea what this test logged for `Cc1ccc2oc(=O)c(/C=C(\O)c3sc(C)nc3C)nc2c1` ?
Out: active

In: Any idea what this test logged for `CC(C)N(C(=O)[C@H]1C[C@H](CC(=O)NCCC2=CCCCC2)C(=O)N2CCc3c([nH]c4ccc(Cl)cc34)[C@]12C)C(C)C` ?
Out: inactive

In: Any idea what this test logged for CC1CN(C(c2ccco2)c2sc3ncnn3c2O)CC(C)O1 (stereo not given) ?
Out: inactive

In: Any idea what this test logged for `CCOC(=O)/C(=C/C=C1\Sc2ccccc2N1CC)C(C)=O` ?
Out: active

In: Any idea what this test logged for `NC(=O)COc1ncn(-c2ccccc2)n1` ?
Out: inactive

In: Any idea what this test logged for `O=C(OCC(=O)N1CCN(c2ccccc2)CC1)c1ccccn1` ?
Out: inactive

In: Any idea what this test logged for `CSc1ncccc1C(=O)N(C)CC(=O)Nc1cccc(F)c1` ?
Out: inactive

In: Any idea what this test logged for CC1(C)CC(=O)C(C2C3=C(CC(C)(C)CC3=O)Oc3c(Br)cc(Br)cc32)=C(O)C1 (stereo not given) ?
Out: active

* * *

# systemName: Corticotropin-releasing factor receptor 2/Corticotropin-releasing factor-binding protein (Homo sapiens, UniProt P24387+Q13324)
# Sequence (Q13324 whole entry): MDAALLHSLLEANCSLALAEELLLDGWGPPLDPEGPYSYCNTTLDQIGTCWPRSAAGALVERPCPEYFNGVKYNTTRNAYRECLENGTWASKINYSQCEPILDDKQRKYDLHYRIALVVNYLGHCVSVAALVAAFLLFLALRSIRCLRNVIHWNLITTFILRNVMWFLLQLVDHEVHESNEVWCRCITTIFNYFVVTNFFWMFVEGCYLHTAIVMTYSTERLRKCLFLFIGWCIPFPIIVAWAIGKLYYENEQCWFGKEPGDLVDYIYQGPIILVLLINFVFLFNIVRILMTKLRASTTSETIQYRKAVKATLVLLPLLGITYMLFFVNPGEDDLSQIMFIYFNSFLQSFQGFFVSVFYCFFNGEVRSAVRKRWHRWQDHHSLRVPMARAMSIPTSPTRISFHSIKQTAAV
# Sequence (P24387 whole entry): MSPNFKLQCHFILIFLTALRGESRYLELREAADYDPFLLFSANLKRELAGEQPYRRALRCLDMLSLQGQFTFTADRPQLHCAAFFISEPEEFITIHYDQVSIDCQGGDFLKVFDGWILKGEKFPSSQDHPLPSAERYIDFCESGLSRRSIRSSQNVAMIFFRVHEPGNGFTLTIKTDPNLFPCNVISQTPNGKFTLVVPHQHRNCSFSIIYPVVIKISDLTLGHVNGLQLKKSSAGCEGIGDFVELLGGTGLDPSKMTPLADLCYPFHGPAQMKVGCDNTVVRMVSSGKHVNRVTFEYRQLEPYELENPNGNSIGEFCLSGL
# testProtocol: activators of CRF receptor 2 with binding protein – uHTS hits, confirmation (AID 602473)
# Format: functional
# testConditions: read-out: EC50_Mean
Calls of active or inactive are those of the source.
Use one of these outcomes when replying: active, inactive

INSERT INTO assay_data (smilesrepresentation, category) VALUES
  ('O=C(Nc1cc(S(=O)(=O)N2CCCCC2)ccc1O)c1ccccc1NS(=O)(=O)c1ccc(F)cc1', 'active'),
  ('O=C(NC1CCCCC1)c1cccc2c1C(=O)c1ccc(N3CCC(Cc4ccccc4)CC3)cc1S2(=O)=O', 'active'),
  ('Cc1ccc(C)c2sc(NC(=O)c3ccc(N4C(=O)CCC4=O)cc3)nc12', 'inactive'),
  ('COc1ccc(CN2CCS(=O)(=O)CC2)cc1OC', 'inactive'),
  ('O=C(O)c1cccc2c1C(=O)N(Cc1ccccc1)C2', 'inactive');

We now examine a further compound.
In: Any idea what this test logged for `N#C/C(=C\C=C\c1ccccc1)c1nc(-c2ccc3c(c2)OCO3)cs1` ?
Out: active

* * *

# testProtocol: viability of PTEN-deleted HCT116 cells – cell-based, HCT116 PTEN knockout, dose response (AID 1047);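 also: HCT116 colon tumor cells with PTEN knocked out; cells exposed to compound for 60 hours before readout; potency for loss of cell viability measured by luminescence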
# Type: functional
Activity calls are given as the source filed them.
Each entry below carries its recorded EC50.

Some compounds with recorded EC50:
INSERT INTO assay_data (smilesrepresentation, measured) VALUES
  ('CC(C)(C)c1ccc(/C=C/C(=O)c2ccc(NC3=NCCCS3)cc2)cc1', '6.9 µM (active)'),
  ('CCOc1ccc(NC(=O)c2cn(CC(C)C)c(=O)c3c2c2ccccc2n3C)cc1', '10 µM (active)');

In: Look up EC50 for this compound: `O=C(Nc1ccc(NC(=O)c2sc3ccccc3c2Cl)cc1)c1ccco1`
Out: 9.27 µM (active)

In: Look up EC50 for this compound: `O=C(CSc1nnc(-c2ccc3c(c2)OCO3)o1)Nc1ncc(Cl)cc1Cl`
Out: 11.4 µM (active)

In: Look up EC50 for this compound: `CC(C)Cc1nc2oc3c(Cl)ncnc3c2c2c1CCC2`
Out: 18 µM (active)

* * *

# systemName: Streptokinase A (Streptococcus pyogenes serotype M1, UniProt P10520)
# Sequence (P10520 whole entry): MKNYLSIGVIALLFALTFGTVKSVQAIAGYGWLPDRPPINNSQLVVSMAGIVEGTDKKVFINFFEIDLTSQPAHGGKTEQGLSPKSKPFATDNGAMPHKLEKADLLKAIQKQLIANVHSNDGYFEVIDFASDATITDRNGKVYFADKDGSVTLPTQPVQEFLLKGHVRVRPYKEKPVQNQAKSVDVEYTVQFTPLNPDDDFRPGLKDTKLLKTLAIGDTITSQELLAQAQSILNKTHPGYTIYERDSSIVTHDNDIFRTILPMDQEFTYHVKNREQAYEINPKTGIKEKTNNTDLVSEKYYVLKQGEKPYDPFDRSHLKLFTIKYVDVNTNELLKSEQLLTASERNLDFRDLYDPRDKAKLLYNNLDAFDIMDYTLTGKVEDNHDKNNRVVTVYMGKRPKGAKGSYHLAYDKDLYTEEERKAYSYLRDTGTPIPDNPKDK
# testProtocol: viability-normalized secreted streptokinase activity reduction – plasminogen activation absorbance, OD405, dose response (AID 1914);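 also: secreted streptokinase activity via plasminogen activation per viability signal from cell pellet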
# Assay type: functional, Streptococcus pyogenes M1 GAS
Calls of active or inactive are those of the source.
reportedMetric: EC50

INSERT INTO assay_data (compound, measured) VALUES
  ('O=C(CSc1ccccn1)Nc1nonc1[N+](=O)[O-]', '> 150 µM (not active)'),
  ('O=[N+]([O-])c1cc(S(=O)(=O)Nc2ccccc2)ccc1N1CCN(c2ccccc2)CC1', '23.9 µM (active)'),
  ('O=C(NNC(=O)c1cc(-c2ccccc2)nc2ccccc12)Nc1cccc(Cl)c1', '22.4 µM (active)'),
  ('Cc1cccc(NC(=O)c2cc3n(n2)C(C(F)(F)F)CC(c2ccc4c(c2)OCO4)N3)c1 (stereo not given)', '28.7 µM (active)'),
  ('Cc1ccc(Cn2c(Cc3ccccc3)nc3ccccc32)cc1', '> 150 µM (not active)');

In: Look up EC50 for this compound: Oc1ccccc1/C=N/NC(=S)NC1CC2C=CC1C2 (stereo not given)
Out: > 16 µM (not active)

In: Look up EC50 for this compound: `COc1cccc2sc(Nc3nnc(-c4ccccc4Cl)o3)nc12`
Out: > 150 µM (not active)

* * *

# systemName: UniProt:Q9GZR1
# Sequence (Q9GZR1 whole entry): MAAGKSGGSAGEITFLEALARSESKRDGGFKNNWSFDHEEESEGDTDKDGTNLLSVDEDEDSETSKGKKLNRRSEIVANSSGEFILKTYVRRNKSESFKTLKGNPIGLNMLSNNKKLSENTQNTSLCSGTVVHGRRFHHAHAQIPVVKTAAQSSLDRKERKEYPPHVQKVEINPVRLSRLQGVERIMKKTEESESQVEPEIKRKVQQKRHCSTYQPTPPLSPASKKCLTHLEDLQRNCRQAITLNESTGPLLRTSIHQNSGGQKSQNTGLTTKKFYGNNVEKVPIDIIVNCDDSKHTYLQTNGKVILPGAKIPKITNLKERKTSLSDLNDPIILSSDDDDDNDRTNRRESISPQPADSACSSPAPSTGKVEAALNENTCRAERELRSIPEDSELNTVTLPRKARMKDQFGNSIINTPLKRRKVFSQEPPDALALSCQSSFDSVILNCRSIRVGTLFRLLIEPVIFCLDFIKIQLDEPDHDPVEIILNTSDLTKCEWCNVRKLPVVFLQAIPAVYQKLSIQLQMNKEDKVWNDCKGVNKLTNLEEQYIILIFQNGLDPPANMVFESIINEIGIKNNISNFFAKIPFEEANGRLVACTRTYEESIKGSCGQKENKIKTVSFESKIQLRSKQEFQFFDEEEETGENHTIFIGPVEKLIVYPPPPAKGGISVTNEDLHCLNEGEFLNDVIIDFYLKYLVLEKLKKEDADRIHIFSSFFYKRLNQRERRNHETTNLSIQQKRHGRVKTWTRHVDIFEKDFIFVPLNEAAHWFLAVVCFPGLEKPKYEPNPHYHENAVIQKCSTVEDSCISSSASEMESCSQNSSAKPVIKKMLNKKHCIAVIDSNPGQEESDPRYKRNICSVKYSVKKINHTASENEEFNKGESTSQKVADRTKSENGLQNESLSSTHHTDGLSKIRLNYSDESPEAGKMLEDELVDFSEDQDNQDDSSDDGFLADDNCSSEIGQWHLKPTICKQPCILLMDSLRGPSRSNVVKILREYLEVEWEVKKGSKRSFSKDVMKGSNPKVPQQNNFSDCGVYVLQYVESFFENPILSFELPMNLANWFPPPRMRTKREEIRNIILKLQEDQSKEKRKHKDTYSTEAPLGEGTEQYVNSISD
# Assay type: functional
Activity calls are given as the source filed them.
reportedMetric: IC50

INSERT INTO assay_data (compound, measured) VALUES
  ('Cc1c(/C=C/C(=O)c2ccccc2O)cnn1C', '14.2 µM (active)');

In: Look up IC50 for this compound: `O=C(c1cccs1)c1coc2ccc(O)cc12`
Out: 10.6 µM (active)

In: Look up IC50 for this compound: `Cc1c(NC(=O)c2ccccc2N)cccc1C(=O)O`
Out: 9.43 µM (active)

In: Look up IC50 for this compound: `Cc1cccc(Nc2nc(-c3ccc(F)c(C)c3)cs2)n1`
Out: 24 µM (active)

In: Look up IC50 for this compound: CCOC(=O)C1=C(C)OC2(O)c3ccccc3C(=O)C12O (stereo not given)
Out: 2.7 µM (active)
